Values compiled from patent US12421243B2.

# Run description: tissue concentrations after intraperitoneal injection into a live rat
# Format: in vivo
# Recorded conditions: lung, ip, 6 mg i.p., 45 min, read-out: Concentration of compound 188 in tissue samples (μM) lung
Reported property: concentration at 45 min (µM)
Report as a plain number; the unit µM is understood.

Query concentration at 45 min for O=C1c2ccsc2N=C2N(c3ccc(N4CCOCC4)cc3)CCC12O (stereo not shown)
9

---

# Assay target: recombinant Dictyostelium miozin (Dictyostelium) (Dictyostelium discoideum)
# Sequence (P08799 whole entry): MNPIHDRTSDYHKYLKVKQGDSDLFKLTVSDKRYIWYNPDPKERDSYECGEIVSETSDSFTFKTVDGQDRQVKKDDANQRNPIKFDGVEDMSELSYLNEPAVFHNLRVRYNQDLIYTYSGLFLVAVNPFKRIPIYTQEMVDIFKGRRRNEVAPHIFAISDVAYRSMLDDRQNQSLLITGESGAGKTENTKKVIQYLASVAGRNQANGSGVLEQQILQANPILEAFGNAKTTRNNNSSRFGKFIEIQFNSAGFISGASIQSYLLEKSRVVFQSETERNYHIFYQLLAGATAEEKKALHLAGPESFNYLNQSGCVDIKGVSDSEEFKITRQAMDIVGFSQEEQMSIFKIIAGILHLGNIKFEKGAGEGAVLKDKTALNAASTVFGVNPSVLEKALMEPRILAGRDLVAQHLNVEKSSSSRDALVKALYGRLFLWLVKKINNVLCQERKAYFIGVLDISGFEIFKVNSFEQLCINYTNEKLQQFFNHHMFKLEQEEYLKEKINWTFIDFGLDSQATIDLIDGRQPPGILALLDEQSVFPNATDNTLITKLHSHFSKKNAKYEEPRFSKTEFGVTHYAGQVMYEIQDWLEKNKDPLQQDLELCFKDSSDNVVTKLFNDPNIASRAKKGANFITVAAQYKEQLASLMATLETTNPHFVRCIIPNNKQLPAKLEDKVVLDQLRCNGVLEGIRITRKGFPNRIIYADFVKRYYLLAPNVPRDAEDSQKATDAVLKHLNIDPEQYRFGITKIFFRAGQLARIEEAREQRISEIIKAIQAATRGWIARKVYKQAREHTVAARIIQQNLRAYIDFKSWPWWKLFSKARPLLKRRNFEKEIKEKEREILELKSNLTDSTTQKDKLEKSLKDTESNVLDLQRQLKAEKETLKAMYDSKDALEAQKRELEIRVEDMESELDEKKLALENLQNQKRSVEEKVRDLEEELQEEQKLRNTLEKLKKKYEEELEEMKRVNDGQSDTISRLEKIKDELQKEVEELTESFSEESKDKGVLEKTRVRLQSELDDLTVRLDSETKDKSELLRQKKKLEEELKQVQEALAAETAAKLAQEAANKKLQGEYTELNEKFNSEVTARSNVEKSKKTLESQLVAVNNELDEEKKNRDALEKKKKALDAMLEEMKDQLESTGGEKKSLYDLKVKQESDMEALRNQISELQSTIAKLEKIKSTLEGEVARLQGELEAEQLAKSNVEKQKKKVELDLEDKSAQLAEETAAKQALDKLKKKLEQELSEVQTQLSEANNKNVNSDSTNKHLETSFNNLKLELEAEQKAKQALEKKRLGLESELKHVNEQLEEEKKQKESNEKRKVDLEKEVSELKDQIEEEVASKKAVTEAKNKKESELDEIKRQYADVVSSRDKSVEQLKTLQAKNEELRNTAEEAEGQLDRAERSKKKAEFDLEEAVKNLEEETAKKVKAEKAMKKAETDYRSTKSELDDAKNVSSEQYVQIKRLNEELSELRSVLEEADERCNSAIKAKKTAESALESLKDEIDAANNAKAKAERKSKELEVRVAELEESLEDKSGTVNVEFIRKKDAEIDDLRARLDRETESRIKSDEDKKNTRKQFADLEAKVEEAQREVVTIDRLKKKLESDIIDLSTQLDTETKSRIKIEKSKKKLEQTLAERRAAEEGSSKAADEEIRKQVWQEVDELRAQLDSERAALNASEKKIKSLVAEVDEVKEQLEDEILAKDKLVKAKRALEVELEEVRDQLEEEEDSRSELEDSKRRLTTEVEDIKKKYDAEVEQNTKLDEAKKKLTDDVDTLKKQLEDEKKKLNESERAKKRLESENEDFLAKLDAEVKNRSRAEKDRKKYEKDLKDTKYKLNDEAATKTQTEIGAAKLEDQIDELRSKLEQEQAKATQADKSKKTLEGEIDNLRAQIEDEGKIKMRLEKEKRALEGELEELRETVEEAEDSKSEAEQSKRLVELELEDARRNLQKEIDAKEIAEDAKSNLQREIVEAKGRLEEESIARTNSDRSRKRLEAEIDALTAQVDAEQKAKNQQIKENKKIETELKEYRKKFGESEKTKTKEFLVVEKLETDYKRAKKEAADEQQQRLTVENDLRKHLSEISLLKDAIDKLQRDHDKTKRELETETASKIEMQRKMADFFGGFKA
# Run description: actomyosin steady state ATPase measurement, Dictyostelium myosin
# Assay type: biochemical
# Recorded conditions: concentration required for semi-maximal inhibition of ATPase; read-out: IC50 (μM) Dicty
Reported property: IC50 (µM)
Report as a plain number; the unit µM is understood.

CC(=O)c1ccc(N2CC[C@@]3(O)C(=O)c4ccsc4N=C23)cc1    36
Cc1cc2c(s1)N=C1N(c3cccs3)CC[C@@]1(O)C2=O    3.6
COc1ccc(N2CCC3(O)C(=O)c4cc(C)sc4N=C23)cn1 (centres unmarked)    8.1

With those in mind, consider the next compound.
Query IC50 for O=C1c2ccsc2N=C2N(c3ccc(N4CCOCC4)cc3)CCC12O (centres unmarked)
13

---

# Assay target: recombinant Dictyostelium miozin (Dictyostelium) (Dictyostelium discoideum)
# Run description: actomyosin steady state ATPase measurement, Dictyostelium myosin
# Type: biochemical
# Recorded conditions: maximum inhibition; compounds in IC50 range 1-11 μM
Inhibition (%) Dicty values, listed per item
Report as a plain number; the unit % is understood.

Examples with their reported Inhibition (%) Dicty follow.
N#Cc1ccc(N2CC[C@@]3(O)C(=O)c4ccsc4N=C23)cc1    87
Cc1cc2c(s1)N=C1N(c3ccc(CC#N)cc3)CCC1(O)C2=O (stereo not shown)    92
CC(=O)c1ccc(N2CCC3(O)C(=O)c4cc(C)sc4N=C23)cc1 (stereo not shown)    100
O=C1c2ccsc2N=C2N(c3ccc(OC(F)(F)F)cc3)CC[C@@]12O    84
Cc1cc2c(s1)N=C1N(c3cccs3)CC[C@@]1(O)C2=O    95

Query Inhibition (%) Dicty for O=C1c2ccncc2N=C2N(c3ccccc3)CCC12O (stereo not shown)
20

Query Inhibition (%) Dicty for O=C1c2ccncc2N=C2N(c3ccc(OC(F)(F)F)cc3)CCC12O (stereo not shown)
41

---

% inhibition at 50 μM (or 100 μM if racemate) Skeletal values, listed per item
# Test system: isolated rabbit skeletal muscle myosin (skeletal)
# Run description: actomyosin steady state ATPase measurement, skeletal muscle myosin
# Type: biochemical
# Recorded conditions: 50 μM (100 μM if racemate); ATPase activity
# Description: […]; (ii) the concentration required for semi-maximal inhibition.
Report as a plain number; the unit % is understood.

N#Cc1ccc(N2CC[C@@]3(O)C(=O)c4ccsc4N=C23)cc1    98
Cc1ccc(N2CC[C@@]3(O)C(=O)c4ccsc4N=C23)cc1    98

Query % inhibition at 50 μM (or 100 μM if racemate) Skeletal for O=C1c2ccncc2N=C2NCCC12O (stereo not drawn)
7

Query % inhibition at 50 μM (or 100 μM if racemate) Skeletal for O=C1c2ccncc2N=C2N(c3ccccc3)CCC12O (stereo not drawn)
77

Query % inhibition at 50 μM (or 100 μM if racemate) Skeletal for COc1ccc(N2CCC3(O)C(=O)c4cc(C)sc4N=C23)cc1 (stereo not drawn)
95

Query % inhibition at 50 μM (or 100 μM if racemate) Skeletal for Cc1ccc(N2CCC3(O)C(=O)c4ccncc4N=C23)cc1 (stereo not drawn)
96

Query % inhibition at 50 μM (or 100 μM if racemate) Skeletal for CC(=O)c1ccc(N2CCC3(O)C(=O)c4cc(C)sc4N=C23)cc1 (stereo not drawn)
95
